test system: DIGSA; assay: Post-emergence herbicidal action against DIGSA; type: in vivo, Digitaria sanguinalis; conditions: 5 g/ha
property_name: Post-emergence action against DIGSA in % (%)

>>> test_result("CCNC(=O)c1c(C(F)(F)F)ccc(C(=O)Nc2nnc(C)o2)c1C")
90
>>> test_result("Cc1nnc(NC(=O)c2ccc(C(F)F)c(C(=O)NC(C)C)c2Cl)o1")
90
>>> test_result("CCn1nnnc1NC(=O)c1ccc(C(F)(F)F)c(C(=O)NCCOC)c1C")
80
>>> test_result("CCNC(=O)c1c(C(F)F)ccc(C(=O)Nc2nnnn2CC)c1C1CC1")
80
>>> test_result("COc1c(C(=O)Nc2nnc(C)o2)ccc(C(F)(F)F)c1C(=O)NC1CC1")
90

---

system: ECHCG; assay: Post-emergence herbicidal action against ECHCG; assay type: in vivo, Echinochloa crus-galli; conditions: dosage 20 g/ha
Listed compounds paired with reported Post-emergence action against ECHCG in %
property_name: Post-emergence action against ECHCG in % (%)

>>> test_result("CCn1nnnc1NC(=O)c1ccc(C(F)(F)F)c(C(=O)NC(C)C2CC2)c1C1CC1 (stereo not shown)")
80
>>> test_result("Cn1nnnc1NC(=O)c1ccc(C(F)(F)F)c(C(=O)NCC2CC2)c1Br")
80
>>> test_result("CCn1nnnc1NC(=O)c1ccc(C(F)(F)F)c(C(=O)NC2CCC2)c1C")
100
>>> test_result("CCn1nnnc1NC(=O)c1ccc(C(F)F)c(C(=O)NCC(F)F)c1SC")
100

---

Listed compounds paired with reported Pre-emergence action against AMARE in %
tested on: AMARE; assay: Pre-emergence herbicidal action against AMARE; type: in vivo, Amaranthus retroflexus; conditions: 20 g/ha, scored visually after 3 weeks vs untreated controls, 100% = plants have died, 0% = like control plants
property_name: Pre-emergence action against AMARE in % (%)

>>> test_result("CCn1nnnc1NC(=O)c1ccc(C(F)F)c(C(=O)NC2CC2)c1C")
100
>>> test_result("CCn1nnnc1NC(=O)c1ccc(Br)c(C(=O)NCCOC)c1Cl")
100
>>> test_result("Cc1nnc(NC(=O)c2ccc(C(F)F)c(C(=O)NCC(F)F)c2Br)o1")
90
>>> test_result("CCn1nnnc1NC(=O)c1ccc(S(C)(=O)=O)c(C(=O)NC2CC2)c1Cl")
80
>>> test_result("COCCNC(=O)c1c(Br)ccc(C(=O)Nc2nnnn2C)c1Cl")
80
>>> test_result("CCn1nnnc1NC(=O)c1ccc(C(F)F)c(C(=O)NC)c1SC")
100
>>> test_result("CCn1nnnc1NC(=O)c1ccc(C(F)F)c(C(=O)NC)c1OC")
100
>>> test_result("Cc1nnc(NC(=O)c2ccc(C(F)F)c(C(=O)NCC(F)(F)F)c2Br)o1")
90
>>> test_result("COc1c(C(=O)Nc2nnc(C)o2)ccc(C(F)F)c1C(=O)NC1CC1")
80
>>> test_result("CCNC(=O)c1c(C(F)F)ccc(C(=O)Nc2nnnn2CC)c1C")
100
>>> test_result("CCn1nnnc1NC(=O)c1ccc(C(F)F)c(C(=O)NC2CC2)c1OC")
100
>>> test_result("Cn1nnnc1NC(=O)c1ccc(C(F)(F)F)c(C(=O)NCC(F)F)c1C1CC1")
100
>>> test_result("Cc1nnc(NC(=O)c2ccc(C(F)F)c(C(=O)NCC3CC3)c2Br)o1")
100
>>> test_result("Cc1nnc(NC(=O)c2ccc(Br)c(C(=O)NCC3CC3)c2Cl)o1")
100
>>> test_result("CCNC(=O)c1c(C(F)F)ccc(C(=O)Nc2nnnn2CC)c1Br")
100
>>> test_result("CCCn1nnnc1NC(=O)c1ccc(C(F)(F)F)c(C(=O)NC2CC2)c1CC")
100
>>> test_result("Cc1nnc(NC(=O)c2ccc(C(F)(F)F)c(C(=O)NC(C)C3CC3)c2Cl)o1 (stereo not drawn)")
100
>>> test_result("Cc1c(C(=O)Nc2nnnn2C)ccc(C(F)F)c1C(=O)NC(C)C1CC1 (stereo not drawn)")
100

---

tested on: MATIN; assay: Pre-emergence herbicidal action against MATIN; assay type: in vivo, Matricaria inodora; details: dosage 80 g/ha
property_name: Pre-emergence action against MATIN in % (%)

>>> test_result("Cc1nnc(NC(=O)c2ccc(C(F)F)c(C(=O)NC(C)C3CC3)c2C)o1 (stereo not drawn)")
90
>>> test_result("Cc1nnc(NC(=O)c2ccc(C(F)F)c(C(=O)NC3CCC3)c2Cl)o1")
100
>>> test_result("CCn1nnnc1NC(=O)c1ccc(C(F)F)c(C(=O)NCC(F)(F)F)c1Br")
100
>>> test_result("CCc1c(C(=O)Nc2nnnn2CC)ccc(C(F)(F)F)c1C(=O)NC(C)C1CC1 (stereo not drawn)")
100
>>> test_result("Cn1nnnc1NC(=O)c1ccc(C(F)F)c(C(=O)NCC(F)F)c1Br")
100
>>> test_result("Cc1nnc(NC(=O)c2ccc(C(F)F)c(C(=O)NC3CC3)c2Br)o1")
100
>>> test_result("CCNC(=O)c1c(C(F)(F)F)ccc(C(=O)Nc2nnc(C)o2)c1Br")
100
>>> test_result("CCn1nnnc1NC(=O)c1ccc(C(F)F)c(C(=O)NCC2CCCO2)c1Cl (stereo not drawn)")
90
>>> test_result("Cc1nnc(NC(=O)c2ccc(C(F)F)c(C(=O)NC(C)C3CC3)c2Br)o1 (stereo not drawn)")
100
>>> test_result("CCn1nnnc1NC(=O)c1ccc(C(F)(F)F)c(C(=O)Nc2ccccc2)c1Cl")
100
>>> test_result("Cc1c(C(=O)Nc2nnnn2C)ccc(C(F)(F)F)c1C(=O)NC(C)C1CC1 (stereo not drawn)")
100
>>> test_result("CCn1nnnc1NC(=O)c1ccc(C(F)(F)F)c(C(=O)NC)c1OC")
100
>>> test_result("CCNC(=O)c1c(OC)ccc(C(=O)Nc2nnnn2CC)c1Cl")
100
>>> test_result("CCNC(=O)c1c(C(F)F)ccc(C(=O)Nc2nnnn2CC)c1SC")
100
>>> test_result("CCn1nnnc1NC(=O)c1ccc(C(F)(F)F)c(C(=O)NC(C)C2CC2)c1Cl (stereo not drawn)")
100
>>> test_result("CCn1nnnc1NC(=O)c1ccc(C(F)F)c(C(=O)NC2CC2)c1C1CC1")
100
>>> test_result("CCn1nnnc1NC(=O)c1ccc(C(F)(F)F)c(C(=O)NCC2CCCO2)c1Cl (stereo not drawn)")
90
>>> test_result("CCNC(=O)c1c(C(F)F)ccc(C(=O)Nc2nnnn2CC)c1OC")
100

---

Listed compounds paired with reported pest or weed control at 20 g/ha
tested on: MATIN; experiment: Post-emergence herbicidal action against MATIN; format: in vivo, Matricaria inodora; conditions: Tripleurospermum inodorum, 504 h, dosage 20 g/ha
property_name: pest or weed control at 20 g/ha

>>> test_result("CNC(=O)c1c(I)ccc(C(=O)Nc2nnnn2C)c1Cl")
"80%"
>>> test_result("CNC(=O)c1c(C(F)(F)F)ccc(C(=O)Nc2nnnn2C)c1OC")
"90%"
>>> test_result("CCNC(=O)c1c(C(F)(F)F)ccc(C(=O)Nc2nnnn2CC)c1C1CC1")
"90%"
>>> test_result("CNC(=O)c1c(C(F)F)ccc(C(=O)Nc2nnnn2C)c1C1CC1")
"90%"
>>> test_result("CCn1nnnc1NC(=O)c1ccc(Br)c(C(=O)NC2CC2)c1Cl")
"90%"
>>> test_result("CNC(=O)c1c(C(F)(F)F)ccc(C(=O)Nc2nnnn2C)c1SC")
"80%"
>>> test_result("CCNC(=O)c1c(C(F)(F)F)ccc(C(=O)Nc2nnnn2CC)c1C")
"90%"
>>> test_result("COc1c(C(=O)Nc2nnnn2C)ccc(C(F)F)c1C(=O)NC1CC1")
"90%"
>>> test_result("CCNC(=O)c1c(C(F)(F)F)ccc(C(=O)Nc2nnnn2C)c1Br")
"80%"
>>> test_result("Cn1nnnc1NC(=O)c1ccc(C(F)F)c(C(=O)NCC(F)(F)F)c1Br")
"80%"
>>> test_result("CNC(=O)c1c(C(F)F)ccc(C(=O)Nc2nnnn2C)c1OC")
"80%"
>>> test_result("CCNC(=O)c1c(C(F)(F)F)ccc(C(=O)Nc2nnnn2C)c1Cl")
"80%"
>>> test_result("CCNC(=O)c1c(Br)ccc(C(=O)Nc2nnnn2C)c1Cl")
"90%"
>>> test_result("Cc1c(C(=O)Nc2nnnn2C)ccc(C(F)(F)F)c1C(=O)NC1CC1")
"100%"
>>> test_result("CCNC(=O)c1c(I)ccc(C(=O)Nc2nnnn2CC)c1Cl")
"90%"
>>> test_result("CCCNC(=O)c1c(C(F)(F)F)ccc(C(=O)Nc2nnnn2C)c1Cl")
"80%"
>>> test_result("CCNC(=O)c1c(C(F)(F)F)ccc(C(=O)Nc2nnnn2C)c1OC")
"90%"
>>> test_result("CC(C)NC(=O)c1c(C(F)F)ccc(C(=O)Nc2nnnn2C)c1Cl")
"80%"
